# System: ACHN
# Procedure Summary: NCI tumour cell line growth inhibition, 48 h
Active and inactive are the calls of the source. Cut-off read from the data, not from the text of the source: active = GI50 up to about 1.1 µM and inactive = higher.
Answer with one of the outcomes true (active), false (inactive)

COc1ccc2c(c1OCC(=O)O)C(=O)C(CCC(=O)O)CC2 (centres undefined): false
CCOC(=O)/C(=C/c1cn(C(C)=O)c2ccccc12)P(=O)(OC)OC: false
CCOC(=O)c1nc2c(nc1C(=O)OCC)C(=O)c1ccccc1C2=O: true
COC1=C(C)C(=O)C2=C(C1=O)C1C3CC4=C(C(=O)C(OC)=C(C)C4=O)C(CNC(=O)C(C)=O)N3C(C#N)C(C2)N1C (centres undefined): true

Query compound follows.
// query Returns: the outcome recorded for COc1cc2c(c3oc4c(O)cccc4c(=O)c13)CC(C(C)(O)CO)O2 (centres undefined) in this assay.
// result false

---

# System: T47D
# Procedure Summary: NCI tumour cell line growth inhibition, 48 h
The source made the active and inactive calls. Rule as the data show it: active = GI50 up to about 1.1 µM and inactive = higher.
Listed below: GI50 values for each entry.

Cc1nc2[nH]ncn2c(=O)c1CCO: > 10 µM (inactive)

// query Need GI50, item CCOP(=O)(OCC)C1CC(n2cc(C)c(=O)[nH]c2=O)OC1CO (configuration not stated)
// result > 100 µM (inactive)

// query Need GI50, item CCc1n[nH]c(=O)n1-n1c(C)ccc1C
// result > 100 µM (inactive)

// query Need GI50, item CC(=O)OC(CN1CCN(c2ccccn2)CC1)Cn1sc2nc(C)cc(C)c2c1=O (configuration not stated)
// result 28 µM (inactive)

// query Need GI50, item c1ccc(/N=C2\c3ccccc3CN2c2ccccn2)nc1
// result 17.5 µM (inactive)

// query Need GI50, item O=C(NCCN1CCCCC1)c1ccc(Br)cc1
// result > 100 µM (inactive)

// query Need GI50, item O=C(O)c1cnc2[nH]ccn2c1=O
// result > 100 µM (inactive)

---

# System: COLO 205
# Procedure Summary: NCI tumour cell line growth inhibition, 48 h
Activity calls are given as the source filed them. Cut-off read from the data, not from the text of the source: active = GI50 up to about 1.1 µM and inactive = higher.
Answer with one of the outcomes active, inactive

Example cases with answers are listed next.
c1ccc2c(c1)SC1=C(SC(=C3SC4=C(S3)Sc3ccccc3S4)S1)S2: inactive
O=c1[nH]n2c(=O)cc[nH]c2c1-c1nnns1: inactive
NC1=Nc2ccccc2Sc2nc3ccccc3n21: inactive
COc1cc(OC)c(/C=C2\N=C(C)N(Nc3nnc(NN4C(=O)/C(=C/c5c(OC)cc(OC)cc5OC)N=C4C)c4ccccc34)C2=O)c(OC)c1: inactive
Nc1c(C(=O)O)nnc2ccc(Cl)cc12: inactive

// query Returns: the outcome recorded for CCC1(O)C(=O)OCc2c1cc1n(c2=O)Cc2cc3cc4c(cc3nc2-1)OCO4 (stereo unspecified) in this assay.
// result active

// query Returns: the outcome recorded for COC(=O)Nc1nc2cc(NS(=O)(=O)c3ccc(Cl)cc3)ccc2[nH]1 in this assay.
// result inactive

// query Returns: the outcome recorded for NC1C2C(CC(=O)O)OCC=C3CN4CCC1(C(=O)C(=O)O)C4CC32 (stereo unspecified) in this assay.
// result inactive

// query Returns: the outcome recorded for CC1(C=O)CC(CCc2ccccc2)NC1Cc1ccc(O)cc1 (stereo unspecified) in this assay.
// result inactive

// query Returns: the outcome recorded for O=C1NC(c2ccc3ccccc3c2)Nc2ccccc21 (stereo unspecified) in this assay.
// result inactive

// query Returns: the outcome recorded for C[N+]1(CCC(=O)c2ccccc2)CCC2CCC(C2)C1 (stereo unspecified) in this assay.
// result inactive

src = ChEMBL document CHEMBL1201862
